Data origin, for the record: paper PMC7594047

molecular target: acetylcholinesterase enzyme from electric eel (Electrophorus electricus, UniProt O42275); construct: purchased Sigma-Aldrich CAS Number 9000-81-1 (catalogue number not given); assay: Acetylcholinesterase (AChE) inhibitory assay (DTNB/acetylthiocholine iodide, absorbance at 412 nm); format: biochemical; conditions: read-out: IC50 value against AChE
Sequence (O42275 24-633): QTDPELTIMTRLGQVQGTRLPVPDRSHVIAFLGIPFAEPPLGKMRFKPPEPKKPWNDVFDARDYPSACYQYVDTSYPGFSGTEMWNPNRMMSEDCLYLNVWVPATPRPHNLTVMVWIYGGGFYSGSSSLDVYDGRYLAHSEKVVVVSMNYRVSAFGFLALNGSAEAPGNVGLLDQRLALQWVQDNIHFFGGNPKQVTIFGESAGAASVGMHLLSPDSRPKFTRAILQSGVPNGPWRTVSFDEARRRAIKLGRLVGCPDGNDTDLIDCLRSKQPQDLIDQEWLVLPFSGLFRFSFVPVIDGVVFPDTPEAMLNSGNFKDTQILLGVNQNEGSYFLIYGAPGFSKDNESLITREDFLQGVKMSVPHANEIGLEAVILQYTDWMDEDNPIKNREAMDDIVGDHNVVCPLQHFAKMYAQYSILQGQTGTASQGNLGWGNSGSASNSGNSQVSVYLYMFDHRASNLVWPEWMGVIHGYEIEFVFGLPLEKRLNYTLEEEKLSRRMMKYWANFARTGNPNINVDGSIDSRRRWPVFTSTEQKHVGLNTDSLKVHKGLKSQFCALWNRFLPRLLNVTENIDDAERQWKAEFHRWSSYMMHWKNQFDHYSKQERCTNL
outcome.measure: IC50 (µM)

In [3]: df
Out[3]:
                                   molecule  outcome_measure  sign  value
0  O=C(c1ccc(Cl)cc1)C1C(c2cc3ccccc3s2)C2C3CCCCC3CN2[C@@]12C(=O)Nc1ccc(Cl)cc12 (stereo partly drawn) [IIf]             IC50     =     34
1  O=C(c1ccccc1)C1C(c2cc3ccccc3s2)C2CSCN2[C@@]12C(=O)Nc1ccc(Cl)cc12 (stereo partly drawn) [IIa]             IC50     >     70
2  O=C(c1ccc(Cl)cc1)C1C(c2cc3ccccc3s2)C2CSCN2[C@@]12C(=O)Nc1ccccc12 (stereo partly drawn) [IIe]             IC50     =   50.6
3  O=C(c1ccc(C(F)(F)F)cc1)C1C(c2cc3ccccc3s2)C2C3CCCCC3CN2[C@@]12C(=O)Nc1ccc(Cl)cc12 (stereo partly drawn) [IIk]             IC50     =   41.5
4  O=C(c1ccc(Br)cc1)C1C(c2cc3ccccc3s2)C2CSCN2[C@@]12C(=O)Nc1ccccc12 (stereo partly drawn) [IIm]             IC50     =   41.4
5  O=C(c1ccc(Br)cc1)C1C(c2cc3ccccc3s2)C2CSCN2[C@@]12C(=O)Nc1ccc(Cl)cc12 (stereo partly drawn) [IIl]             IC50     =   29.8

----------
Form field: inhibition at 3.125 µg/mL (one value per entry).
Biological target: acetylcholinesterase enzyme from electric eel (Electrophorus electricus, UniProt O42275)
Construct: purchased Sigma-Aldrich CAS Number 9000-81-1 (catalogue number not given)
Assay: Acetylcholinesterase (AChE) inhibitory assay (DTNB/acetylthiocholine iodide, absorbance at 412 nm)
Format: biochemical
Conditions: Conc 3.125 ug/ml
Procedure: The in vitro cholinesterase inhibitory activity of the 14 synthesized spiro-oxindole derivatives (IIa–n) were evaluated. […] Galantamine was used as a positive control for comparison. Acetylcholinesterase (AChE) inhibitory assay. […] The initial screening was carried out at 50 μg/mL of test samples in 1% DMSO. Absorbance of the test samples was corrected by subtracting the absorbance of their respective blank. […]
outcome.measure: inhibition at 3.125 µg/mL (%)

>>> print(df.to_string())
                                    molecule            outcome_measure  value
 0  O=C(c1ccc(F)cc1)C1C(c2cc3ccccc3s2)C2CSCN2[C@@]12C(=O)Nc1ccc(Cl)cc12 (stereo partly shown)  inhibition at 3.125 µg/mL   30.3
 1  O=C(c1ccccc1)C1C(c2cc3ccccc3s2)C2CSCN2[C@@]12C(=O)Nc1ccccc12 (stereo partly shown)  inhibition at 3.125 µg/mL   8.12
 2  O=C(c1ccc(C(F)(F)F)cc1)C1C(c2cc3ccccc3s2)C2CSCN2[C@@]12C(=O)Nc1ccccc12 (stereo partly shown)  inhibition at 3.125 µg/mL   6.43
 3  O=C(c1ccc(Cl)cc1)C1C(c2cc3ccccc3s2)C2C3CCCCC3CN2[C@@]12C(=O)Nc1ccc(Cl)cc12 (stereo partly shown)  inhibition at 3.125 µg/mL   24.4
 4  O=C(c1ccc(F)cc1)C1C(c2cc3ccccc3s2)C2C3CCCCC3CN2[C@@]12C(=O)Nc1ccc(Cl)cc12 (stereo partly shown)  inhibition at 3.125 µg/mL   6.58
 5  O=C(c1ccc(C(F)(F)F)cc1)C1C(c2cc3ccccc3s2)C2C3CCCCC3CN2[C@@]12C(=O)Nc1ccc(Cl)cc12 (stereo partly shown)  inhibition at 3.125 µg/mL   24.8
 6  O=C(c1ccc(C(F)(F)F)cc1)C1C(c2cc3ccccc3s2)C2CSCN2[C@@]12C(=O)Nc1ccc(Cl)cc12 (stereo partly shown)  inhibition at 3.125 µg/mL   7.35
 7  O=C(c1ccc(Br)cc1)C1C(c2cc3ccccc3s2)C2C3CCCCC3CN2[C@@]12C(=O)Nc1ccc(Cl)cc12 (stereo partly shown)  inhibition at 3.125 µg/mL   23.4
 8  O=C(c1ccc(Cl)cc1)C1C(c2cc3ccccc3s2)C2CSCN2[C@@]12C(=O)Nc1ccc(Cl)cc12 (stereo partly shown)  inhibition at 3.125 µg/mL   24.8
 9  O=C(c1ccc(Br)cc1)C1C(c2cc3ccccc3s2)C2CSCN2[C@@]12C(=O)Nc1ccc(Cl)cc12 (stereo partly shown)  inhibition at 3.125 µg/mL   25.6
10  O=C(c1ccc(Cl)cc1)C1C(c2cc3ccccc3s2)C2CSCN2[C@@]12C(=O)Nc1ccccc12 (stereo partly shown)  inhibition at 3.125 µg/mL   23.3
11  O=C(c1ccccc1)C1C(c2cc3ccccc3s2)C2CSCN2[C@@]12C(=O)Nc1ccc(Cl)cc12 (stereo partly shown)  inhibition at 3.125 µg/mL   6.58
12  O=C(c1ccccc1)C1C(c2cc3ccccc3s2)C2C3CCCCC3CN2[C@@]12C(=O)Nc1ccc(Cl)cc12 (stereo partly shown)  inhibition at 3.125 µg/mL   29.9
